Test protocol: Toxicity liver stage against HepG2, at 10uM
Type: cell-based
Design: test concentration 10 uM, cell line HepG2-A16-CD81EGFP
Experimental conditions: human, HepG2-A16-CD81EGFP cells; read-out: INHIBITION
Attribute measured: cytotoxicity at 10 µM (%)
Only the number, expressed in %, is required.

Illustrative cases are given below, each with its answer.
                                   compound  recorded_value
0  CCc1n[nH]c(=O)c(C(=O)N2CCSC(C)(C)C2)c1CC            18.6
1  CCc1ccc(C(COC)NC(=O)c2ccc(NC(C)=O)cc2)o1 (stereo not drawn)           -3.91
2  CCc1ccc(CN2CCCC(c3nn(C)c(=O)n3CC)C2)nc1 (stereo not drawn)            1.93
3  Cc1ncc(CNCC2CCC(C(N)=O)CC2)n1-c1ccccc1 (stereo not drawn)           -12.9
4  COCCNC(=O)[C@H]1C[C@@](CC(C)C)(C(=O)O)N(C)[C@H]1c1cccnc1           -6.16

Tell me its cytotoxicity at 10 µM given Cc1cc(C)n2nc(C(=O)N3CCCC4(CNC(=O)O4)C3)cc2n1 (stereo not drawn) as the entry.
9.48

Check the records and state cytotoxicity at 10 µM for Cc1ccnc(NC(=O)c2ccc(Cl)o2)c1
4.14

Fill in cytotoxicity at 10 µM for record CN(C)C(=O)c1cccc(NC(=O)Cc2cc(F)ccc2F)n1
-2.64
